- Tested target: estrogen receptor (Sus scrofa)
- Sequence (Q29040 1-595): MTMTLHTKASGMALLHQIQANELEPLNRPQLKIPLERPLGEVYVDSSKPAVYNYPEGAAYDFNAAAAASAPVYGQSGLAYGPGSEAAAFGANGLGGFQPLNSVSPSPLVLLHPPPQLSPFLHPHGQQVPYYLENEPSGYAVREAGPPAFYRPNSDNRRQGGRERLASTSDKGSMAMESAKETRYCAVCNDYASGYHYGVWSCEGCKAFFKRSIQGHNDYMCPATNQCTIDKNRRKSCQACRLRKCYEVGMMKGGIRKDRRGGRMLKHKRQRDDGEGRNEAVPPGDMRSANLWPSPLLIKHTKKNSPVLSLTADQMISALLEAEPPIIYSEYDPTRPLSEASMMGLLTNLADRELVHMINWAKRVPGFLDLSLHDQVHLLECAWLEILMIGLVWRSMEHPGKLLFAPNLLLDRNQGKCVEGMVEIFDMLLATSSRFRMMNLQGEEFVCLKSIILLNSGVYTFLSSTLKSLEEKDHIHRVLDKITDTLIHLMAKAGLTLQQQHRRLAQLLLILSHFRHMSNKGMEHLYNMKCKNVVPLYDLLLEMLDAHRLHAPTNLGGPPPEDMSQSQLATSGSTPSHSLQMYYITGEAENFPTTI
Observable: RBA*
Just the number, please, no unit after it.

compound="CCN(CC)CCOc1ccc(/C(=C(/CCCO)c2ccccc2)c2ccccc2)cc1 [III (trans), N,N-diethyl-hydroxymethyltamoxifen]" tested_target="estrogen receptor (Sus scrofa)" endpoint_value=400

The record that follows has no RBA* shown yet.
Incoming: Requested field: RBA*. Item: CCN(CC)CCOc1ccc(/C(=C(\CCCO)c2ccccc2)c2ccccc2)cc1 [III (Cis), N,N-diethyl-hydroxymethyltamoxifen]
Outgoing: 300

* * *

# IC50 values compiled below
- Tested target: estrogen receptor (Sus scrofa)
- Measurement protocol: biochemical
- Run conditions: IC-50 estrogen receptor binding; [^3H]estradiol (5 nM)
The reply should contain only the number, in nM.

Known IC50 results, listed for orientation:
molecule="CCN(CC)CCOc1ccc(/C(=C(/CCCO)c2ccccc2)c2ccccc2)cc1 [III (trans), N,N-diethyl-hydroxymethyltamoxifen]" tested_target="estrogen receptor (Sus scrofa)" observable=IC50 endpoint_value=7000
molecule="CCN(CC)CCOc1ccc(/C(=C(\\CCCO)c2ccccc2)c2ccccc2)cc1 [III (Cis), N,N-diethyl-hydroxymethyltamoxifen]" tested_target="estrogen receptor (Sus scrofa)" observable=IC50 endpoint_value=10000
molecule="CCN(CC)CCOc1ccc(/C(=C(\\CCCCl)c2ccccc2)c2ccccc2)cc1 [Compound XII (Cis)]" tested_target="estrogen receptor (Sus scrofa)" observable=IC50 endpoint_value=4000

Incoming: Requested field: IC50. Item: CCN(CC)CCOc1ccc(/C(=C(/CCCI)c2ccccc2)c2ccccc2)cc1 [Compound X]
Outgoing: 2000

Incoming: Requested field: IC50. Item: CCN(CC)CCOc1ccc(C(=C(CCCBr)c2ccccc2)c2ccccc2)cc1
Outgoing: 200

Incoming: Requested field: IC50. Item: CCN(CC)CCOc1ccc(/C(=C(/CCCCl)c2ccccc2)c2ccccc2)cc1
Outgoing: 400

Incoming: Requested field: IC50. Item: CCN(CC)CCOc1ccc(/C(=C(/CCCBr)c2ccccc2)c2ccccc2)cc1 [Compound XI (trans)]
Outgoing: 200

Incoming: Requested field: IC50. Item: CCN(CC)CCOc1ccc(/C(=C(/CCCI)c2ccccc2)c2ccccc2)cc1 [X (trans)]
Outgoing: 2000

Incoming: Requested field: IC50. Item: CCN(CC)CCOc1ccc(/C(=C(\CCCI)c2ccccc2)c2ccccc2)cc1 [X (cis), N,N-diethyl-iodomethyltamoxifen]
Outgoing: 3000

Incoming: Requested field: IC50. Item: CCN(CC)CCOc1ccc(/C(=C(\CCCBr)c2ccccc2)c2ccccc2)cc1 [Compound XI (Cis)]
Outgoing: 800

* * *

- Measurement protocol: In vivo biodistribution of N,N-diethyl-[^18F]fluoromethyltamoxifen in rats
- Run conditions: kidney; rat, iv; 2h; primed with 60 μg of estradiol for 3 days; read-out: KIDNEY
Observable: tissue uptake at 2 h (%ID/g)
The reply should contain only the number, in %ID/g.

Incoming: Requested field: tissue uptake at 2 h. Item: CCN(CC)CCOc1ccc(C(=C(CCC[18F])c2ccccc2)c2ccccc2)cc1 [N,N-DIETHYL-[^18F]FLUOROMETHYLTAMOXIFEN]
Outgoing: 0.742

* * *

- Measurement protocol: In vivo biodistribution of N,N-diethyl-[^18F]fluoromethyltamoxifen in rats
- Run conditions: uterus; rat, iv; 2h; primed with 60 μg of estradiol for 3 days; read-out: UTERUS
- Protocol: Four groups of rats (150-200 gm, N = 4/group) were anesthetized with ketamine (10-15 mg/rat). […]. Tissue uptake of ^18F-tracer was determined at 2 and 4 hours (h). To ascertain whether the ^18 F-tracer uptake was mediated by a receptor-process, one group of rats was given ^18F-tracer without priming with estradiol; and another group of rats was given unlabeled estradiol (30 µg/rat) together with ^18 F-tracer. […]
Observable: tissue uptake at 2 h (%ID/g)
The reply should contain only the number, in %ID/g.

Incoming: Requested field: tissue uptake at 2 h. Item: CCN(CC)CCOc1ccc(C(=C(CCC[18F])c2ccccc2)c2ccccc2)cc1 [N,N-DIETHYL-[^18F]FLUOROMETHYLTAMOXIFEN]
Outgoing: 0.426

* * *

# pKi values compiled below
- Tested target: estrogen receptor (Sus scrofa, UniProt Q29040)
- Sequence (Q29040 1-595): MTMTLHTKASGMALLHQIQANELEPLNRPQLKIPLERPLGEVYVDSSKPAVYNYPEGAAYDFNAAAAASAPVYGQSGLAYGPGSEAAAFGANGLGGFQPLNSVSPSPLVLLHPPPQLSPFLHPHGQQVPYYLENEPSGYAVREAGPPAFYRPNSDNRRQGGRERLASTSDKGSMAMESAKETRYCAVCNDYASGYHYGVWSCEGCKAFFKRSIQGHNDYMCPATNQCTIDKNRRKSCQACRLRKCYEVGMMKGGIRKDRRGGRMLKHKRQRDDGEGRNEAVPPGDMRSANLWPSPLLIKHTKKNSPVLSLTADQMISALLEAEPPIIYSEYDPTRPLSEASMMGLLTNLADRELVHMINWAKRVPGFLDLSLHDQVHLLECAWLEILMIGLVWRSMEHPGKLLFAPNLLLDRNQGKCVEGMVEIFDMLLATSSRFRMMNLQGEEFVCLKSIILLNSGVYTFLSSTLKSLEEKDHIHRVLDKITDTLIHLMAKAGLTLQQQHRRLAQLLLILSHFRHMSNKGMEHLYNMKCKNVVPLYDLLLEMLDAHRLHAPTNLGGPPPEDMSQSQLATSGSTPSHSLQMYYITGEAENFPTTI
- Measurement protocol: biochemical
Answer as the number alone; pKi is minus log10 of concentration in mol/L.

Known pKi results, listed for orientation:
molecule="CCN(CC)CCOc1ccc(/C(=C(/CCCO)c2ccccc2)c2ccccc2)cc1 [III (trans), N,N-diethyl-hydroxymethyltamoxifen]" endpoint_value=5.46
molecule="CCN(CC)CCOc1ccc(/C(=C(/CCCI)c2ccccc2)c2ccccc2)cc1 [X (trans)]" endpoint_value=6.00
molecule="CCN(CC)CCOc1ccc(/C(=C(\\CCCO)c2ccccc2)c2ccccc2)cc1 [III (Cis), N,N-diethyl-hydroxymethyltamoxifen]" endpoint_value=5.30

The record that follows has no pKi shown yet.
Incoming: Requested field: pKi. Item: CCN(CC)CCOc1ccc(/C(=C(\CCCI)c2ccccc2)c2ccccc2)cc1 [X (cis), N,N-diethyl-iodomethyltamoxifen]
Outgoing: 5.82

These data points were gathered from patent EP0551434B1.
